test: Calculated free (protein-unbound) drug levels in CSF, law of mass action; type: in vivo, human; conditions: law of mass action approach
endpoint-label: calculated free, unbound CSF concentration, mean (nM)
A number alone suffices; assume nM.

>  <mol-smiles>
O=C(CCCCCCC(=O)Nc1ccccc1)NO

>  <result-units>
nM

>  <result>
75.3

$$$$

stdin: Give the value of calculated free, unbound CSF concentration, mean reported for the following: CN(C)C(=O)c1cc2cnc(Nc3ccc(N4CCNCC4)cn3)nc2n1C1CCCC1
stdout: 43.5

stdin: Give the value of calculated free, unbound CSF concentration, mean reported for the following: Cc1nc(Nc2ncc(C(=O)Nc3c(C)cccc3Cl)s2)cc(N2CCN(CCO)CC2)n1
stdout: 1

stdin: Give the value of calculated free, unbound CSF concentration, mean reported for the following: CNC(=O)c1cc(Oc2ccc(NC(=O)Nc3ccc(Cl)c(C(F)(F)F)c3)c(F)c2)ccn1
stdout: 3.9

###

Tested on: ABCB1
Assay: Intracellular drug accumulation in ABCB1-overexpressing KB-C1 cells with or without elacridar (ABCB1 substrate testing), HPLC-QqQ MS
Format: cell-based
Settings: fold-change of drug accumulation upon ABCB1-inhibition with elacridar, Fig. 4 coding: > 2 fold-control unfavorable, 1–2 intermediate, < 1 favorable
Method: We first compared interaction of the investigated drugs with ABCB1 by measuring fluorescent substrate drug accumulation in the parental KB-3-1 (a HeLa cell derivative) cell model and its isogenic ABCB1-overexpressing KB-C1 cell model, as previously published. As a known fluorescent ABCB1 substrate calcein (derived from non-fluorescent calcein AM) was used in the presence of investigated drugs (1 μM and 10 μM) using fluorescence-activated cell sorting (FACS). […]
endpoint-label: ABCB1 substrate evaluation

>  <compound>
COC(=O)c1ccc2c(c1)NC(=O)/C2=C(\Nc1ccc(N(C)C(=O)CN2CCN(C)CC2)cc1)c1ccccc1 [nintedanib]

>  <result>
intermediate

$$$$
>  <compound>
CN(C)C(=O)c1cc2cnc(Nc3ccc(N4CCNCC4)cn3)nc2n1C1CCCC1 [ribociclib]

>  <result>
intermediate

$$$$
>  <compound>
O=C(CCCCCCC(=O)Nc1ccccc1)NO [vorinostat]

>  <result>
most favorable

$$$$
>  <compound>
CNC(=O)c1cc(Oc2ccc(NC(=O)Nc3ccc(Cl)c(C(F)(F)F)c3)c(F)c2)ccn1 [regorafenib]

>  <result>
most favorable

$$$$

###

test: CSF drug concentration in pediatric brain tumor patients, Ommaya reservoir samples, HPLC-QqQ MS; format: in vivo, human; conditions: CSF concentration class

>  <mol-smiles>
CN(C)C(=O)c1cc2cnc(Nc3ccc(N4CCNCC4)cn3)nc2n1C1CCCC1

>  <CSF penetrance class>
high (high (> 10 nM))

$$$$
>  <mol-smiles>
O=C(CCCCCCC(=O)Nc1ccccc1)NO

>  <CSF penetrance class>
high (high (> 10 nM))

$$$$

Data credit: paper PMC7268320
